Reported values of EC50 for individual entries
system: AGS gastric carcinoma cells [heterozygous G12D]; assay: Cancer cell line proliferation (CellTiter-Glo), AGS; assay type: cell-based; conditions: Homo sapiens, 72 hr treatment, read-out: AGS CTG (EC50)

Some molecules with known EC50 results, for comparison:
INSERT INTO results (molecule, result) VALUES
  ('CNC(=O)c1nnc(-c2cc(C(C)C)c(O)cc2O)n1-c1ccc(CN2CCN(C(=O)C3CCN([C@H]4C[C@@H](COc5nc(N6CC7CCC(C6)N7)c6cnc(-c7cccc8cccc(Cl)c78)c(F)c6n5)N(C)C4)CC3)CC2)cc1 [Compound 7]', '< 100 nM'),
  ('CCNC(=O)c1nnc(-c2cc(C(C)C)c(O)cc2O)n1-c1ccc(CN(C)[C@@H]2CN3CCC[C@]3(COc3nc(N4CC5CCC(C4)N5)c4cnc(-c5cc(O)cc6ccccc56)c(F)c4n3)C2)cc1 [Compound 40]', '100 to 1000 nM');

Next item in the queue.
Ask: State its EC50 for this molecule: C#Cc1cccc2cccc(-c3ncc4c(N5CC6CCC(C5)N6)nc(OCC5(CN6CCN(Cc7ccc(-n8c(O)nnc8-c8cc(C(C)C)c(O)cc8O)cc7)CC6)CC5)nc4c3F)c12 [Compound 10]
Reply: 100 to 1000 nM

----------
system: AGS gastric carcinoma cells [heterozygous G12D]; assay: Cancer cell line proliferation (CellTiter-Glo), AGS; format: cell-based; details: Homo sapiens, 72 hr treatment, read-out: AGS CTG (EC50)
Endpoint: EC50

INSERT INTO measurements (molecule, endpoint, result) VALUES
  ('Cc1cccc2cccc(-c3ncc4c(N5CC6CCC(C5)N6)nc(OC[C@@H]5CC[C@H](CN6CCN(Cc7ccc(-n8c(C(=O)NC(C)C(F)(F)F)nnc8-c8cc(C(C)C)c(O)cc8O)cc7)CC6)N5C)nc4c3F)c12 (stereo partly drawn) [Compound 107]', 'EC50', '0.1 to 1 µM'),
  ('CCNC(=O)c1nnc(-c2cc(C(C)C)c(O)cc2O)n1-c1ccc(CN2CCN([C@H]3C[C@@H](COc4nc(N5CC6CCC(C5)N6)c5cnc(-c6cccc(C)c6C)c(F)c5n4)N(C)C3)CC2)cc1 [Compound 53]', 'EC50', '< 0.1 µM');

Next item in the queue.
Ask: State its EC50 for this molecule: C#Cc1c(F)ccc2cc(O)cc(-c3ncc4c(N5CC6CCC(C5)N6)nc(OCC5CN(Cc6ccc(-n7c(C(=O)NC(C)C(F)(F)F)nnc7-c7cc(C(C)C)c(O)cc7O)cc6)C5)nc4c3F)c12 (stereo not drawn) [Compound 174]
Reply: 0.1 to 1 µM

----------
biological target: KRAS(G12D)/SOS1 (Homo sapiens, UniProt P01116, G12D); assay: KRAS(G12D)/SOS1 homogeneous time-resolved fluorescence (HTRF) assay; details: absence of GTP; 4° C., 3 hr
Sequence (P01116 1-188 isoform P01116-2 G12D): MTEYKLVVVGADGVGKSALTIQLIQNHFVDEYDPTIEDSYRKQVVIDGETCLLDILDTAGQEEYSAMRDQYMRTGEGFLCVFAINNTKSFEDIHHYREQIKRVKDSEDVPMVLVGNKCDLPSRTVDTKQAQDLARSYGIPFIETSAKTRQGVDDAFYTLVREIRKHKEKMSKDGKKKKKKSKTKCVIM
pIC50: −log10 of the molar value.
Reported values of pIC50 for individual entries

Some molecules with known pIC50 results, for comparison:
INSERT INTO assay_data (molecule, endpoint, result) VALUES
  ('C#Cc1cccc2cc(O)cc(-c3ncc4c(N5CC6CCC(C5)N6)nc(OCC5(CN6CCN(Cc7ccc8c(c7)CN(C(=O)c7cc(C(C)C)c(O)cc7O)C8)CC6)CC5)nc4c3F)c12 [Compound 131]', 'pIC50', '> 7.00'),
  ('Cc1cccc(-c2ncc3c(N4CC5CCC(C4)N5)nc(OC[C@@H]4C[C@H](N5CCN(Cc6ccc(-n7c(O)nnc7-c7cc(C(C)C)c(O)cc7O)cc6)CC5)CN4C)nc3c2F)c1C [Compound 52]', 'pIC50', '< 6.00'),
  ('C#Cc1cccc2cccc(-c3ncc4c(N5CC6CCC(C5)N6)nc(OCC5(CN6CCN(Cc7ccc8c(c7)CN(C(=O)c7cc(C(C)C)c(O)cc7O)C8)CC6)CC5)nc4c3F)c12 [Compound 11]', 'pIC50', '> 7.00'),
  ('C#Cc1c(F)ccc2cc(O)cc(-c3ncc4c(N5CC6CCC(C5)N6)nc(OCc5ccc6c(c5)CN(C(=O)c5cc(C(C)C)c(O)cc5O)C6)nc4c3F)c12 [Compound 173]', 'pIC50', '6.00 to 7.00'),
  ('C#Cc1c(F)ccc2cc(O)cc(-c3ncc4c(N5CC6CCC(C5)N6)nc(OCC5(CN6CCN(CC7CCN(Cc8ccc(-n9c(C(=O)NC(C)C(F)(F)F)nnc9-c9cc(C(C)C)c(O)cc9O)cc8)CC7)CC6)CC5)nc4c3F)c12 (stereo not drawn) [Compound 153]', 'pIC50', '> 7.00');

Ask: State its pIC50 for this molecule: C#Cc1c(F)ccc2cc(O)cc(-c3ncc4c(N5CC6CCC(C5)N6C(=O)C(F)(F)F)nc(OCC5(CN6CCN(CC7CCN(Cc8ccc(-n9c(C(=O)NC(C)C(F)(F)F)nnc9-c9cc(C(C)C)c(O)cc9O)cc8)CC7)CC6)CC5)nc4c3F)c12 (stereo not drawn) [Compound 146]
Reply: 6.00 to 7.00

Ask: State its pIC50 for this molecule: CC(C)c1cc(-c2nnc(C(=O)NC(C)C(F)(F)F)n2-c2ccc(CN3CCC(CN4CCN(CC5(COc6nc(N7CC8CCC(C7)N8)c7cnc(-c8cccc9ccccc89)c(F)c7n6)CC5)CC4)CC3)cc2)c(O)cc1O (stereo not drawn) [Compound 137]
Reply: 6.00 to 7.00

Ask: State its pIC50 for this molecule: C#Cc1c(F)ccc2cc(O)cc(-c3nc(OC)c4c(N5CC6CCC(C5)N6)nc(OCC5(CN6CCN(CC7CCN(Cc8ccc(-n9c(C(=O)NC(C)C(F)(F)F)nnc9-c9cc(C(C)C)c(O)cc9O)cc8)CC7)CC6)CC5)nc4c3F)c12 (stereo not drawn) [Compound 158]
Reply: > 7.00

Ask: State its pIC50 for this molecule: C#Cc1cccc2cc(O)cc(-c3ncc4c(N5CC6CCC(C5)N6)nc(OCC5(CN6CCC(C(=O)N7CCN(Cc8ccc(-n9c(C(=O)NC(C)C(F)(F)F)nnc9-c9cc(C(C)C)c(O)cc9O)cc8)CC7)CC6)CC5)nc4c3F)c12 (stereo not drawn) [Compound 120]
Reply: > 7.00

Measured values drawn from patent US20260070929A1 for this set.
